Counter-ions that a name gives are not always drawn.
measurement.kind: melting point

Past entries and their recorded results:
CN(C)c1ccc(-c2ccc3c(c2)-n2cc(-c4ccccc4)cc2C(=O)N(C)C32CC2)cn1 (as salt: hydrochloride) [Example 114] = 200 to 208 °C
Cc1cccc2c1-n1cccc1C(=O)N(C)C21CC1 [Example 90] = 200 to 207 °C
Cc1ncccc1-c1ccc2c(c1)-n1cc(-c3cnc[nH]3)cc1C(=O)N(C)C21CC1 (as salt: hydrochloride) [Example 183] = > 250 °C
Cc1ncoc1-c1ccc2c(c1)-n1cccc1C(=O)N(C)C21CC1 [Example 49] = 120 to 128 °C
CN1C(=O)c2cccn2-c2cc(-c3cccnc3F)ccc2C12CC2 [Example 33] = 158 to 162 °C
Cc1ccc(-c2ccc3c(c2)-n2cc(-c4ccccc4)cc2C(=O)N(C)C32CC2)cn1 (as salt: hydrochloride) [Example 103] = 200 to 215 °C
CN(C)c1ccc(-c2ccc3c(c2)-n2cc(-c4nnco4)cc2C(=O)N(C)C32CC2)cn1 [Example 190] = > 250 °C
CC1c2ccc(-c3ccc(N(C)C)nc3)cc2-n2cccc2C(=O)N1C (stereo not shown) (as salt: hydrochloride) [Example 219] = 145 to 162 °C
CN1C(=O)c2cccn2-c2cc(C3=CCN(c4ccncn4)CC3)ccc2C12CC2 (as salt: hydrochloride) [Example 47] = 210 to 220 °C
COc1ncccc1-c1ccc2c(c1)-n1cc(-c3ccccc3)cc1C(=O)N(C)C21CC1 [Example 116] = 183 to 186 °C

Given the entry Cc1ncccc1-c1ccc2c(c1)-n1cc(C(F)F)cc1C(=O)N(C)C21CC1 (as salt: hydrochloride) [Example 201] , report its measured melting point.
240 to 250 °C

Please do the same for Cc1ncsc1-c1ccc2c(c1)-n1cccc1C(=O)N(C)C21CC1 [Example 50] as well.
205 to 212 °C

What about CN1C(=O)c2cccn2-c2cc(-c3ccnc(F)c3)ccc2C12CC2 [Example 34] ?
197 to 201 °C

And what about the compound CN1C(=O)c2cccn2-c2cc(C3=CCNCC3)ccc2C12CC2 (as salt: hydrochloride) [Example 46] ?
208 to 215 °C

Now consider COCN1C(=O)c2cccn2-c2cc(-c3cccnc3C)ccc2C12CC2 [Example 21] and answer again.
138 to 142 °C

Same question for Cc1ncccc1-c1ccc2c(c1)-n1cc(C3CCCC3)cc1C(=O)N(C)C21CC1 (as salt: hydrochloride) [Example 156] please.
230 to 235 °C

* * *

Biological target: human mGluR3 (hmGluR3) (Homo sapiens)
Test: Human mGluR3 positive allosteric modulator evaluation using Ca++ functional assay
Conditions: hmGluR3 transiently over-expressed in HEK-293 cells; stimulated by EC50 glutamate concentration; intracellular Ca2+ (Fluo4AM, FLIPR Tetra)
pEC50: −log10 of the molar value.
measurement.kind: pEC50

Cc1ncccc1-c1ccc2c(c1)-n1ccc(Cl)c1C(=O)N(C)C21CC1 = 6.00 to 7.00
Cc1ncccc1-c1ccc2c(c1)-n1cc(-c3nccs3)cc1C(=O)N(C)C21CC1 = > 7.00
CN1C(=O)c2cccn2-c2cc(C=CC#N)ccc2C12CC2 (mixture of isomers) = 6.00 to 7.00

Query: pEC50; subject: CN1C(=O)c2cccn2-c2cc(Br)c(F)cc2C12CC2
< 6.00

Try CN1C(=O)c2cccn2-c2cc(-c3cc(F)ccn3)ccc2C12CC2 next.
6.00 to 7.00

* * *

Where a name gives a salt, the structure may show the parent alone.
measurement.kind: melting point

Worked cases, answers included:
CCC1c2ccc(-c3cccnc3C)cc2-n2cccc2C(=O)N1C (stereo not shown) (as salt: hydrochloride) [Example 220] = 160 to 170 °C
CN1C(=O)c2cc(-c3nnco3)cn2-c2cc(-c3cccc(C#N)c3)ccc2C12CC2 [Example 192] = > 250 °C
Cc1ncccc1-c1ccc2c(c1)-n1cc(CC3CCCC3)cc1C(=O)N(C)C21CC1 (as salt: hydrochloride) [Example 196] = 165 to 176 °C

We next turn to a different molecule, shown below.
What value of measured melting point is listed for CN1C(=O)c2cccn2-c2cc(-c3cnccc3C(F)(F)F)ccc2C12CC2 [Example 37] ?
67 to 78 °C

* * *

Recorded measurements of pEC50, one per entry
Biological target: human mGluR3 (hmGluR3) (Homo sapiens)
Assay: Human mGluR3 positive allosteric modulator evaluation using Ca++ functional assay
Details: hmGluR3 transiently over-expressed in HEK-293 cells; stimulated by EC50 glutamate concentration; intracellular Ca2+ (Fluo4AM, FLIPR Tetra)
Protocol: Compounds of the present invention were tested successively for their agonist and positive allosteric modulator activities on human mGluR3 (hmGluR3) transiently over-expressed in HEK-293 cells. […] Receptor activity was detected by changes in intracellular calcium measured using the fluorescent Ca^2+ sensitive dye, Fluo4AM (Molecular Probes). […] Agonist and positive allosteric modulator activities of compounds were consecutively evaluated on the same cells plate. […]
pEC50: −log10 of the molar value.

Reference set, count: 10
CCc1ncccc1-c1ccc2c(c1)-n1cc(CO)cc1C(=O)N(C)C21CC1 [Example 203] = 6.00 to 7.00
Cc1ncccc1-c1ccc2c(c1)-n1cc(C(=O)C3CCCC3)cc1C(=O)N(C)C21CC1 [Example 194] = 6.00 to 7.00
Cc1cc(-c2ccc3c(c2)-n2cccc2C(=O)N(C)C32CC2)ccn1 [Example 26] = 6.00 to 7.00
CN1C(=O)c2cccn2-c2cc(-c3cnccc3C(F)(F)F)ccc2C12CC2 [Example 37] = < 6.00
Cc1cc2n(c1)-c1cc(-c3cccnc3C)ccc1C1(CC1)N(C)C2=O [Example 144] = > 7.00
Cc1ncsc1-c1ccc2c(c1)-n1cccc1C(=O)N(C)C21CC1 [Example 50] = 6.00 to 7.00
CN1C(=O)c2cccn2-c2c(ccc(-c3ccc(F)nc3)c2F)C12CC2 [Example 76] = > 7.00
CCc1cc2n(c1)-c1cc(-c3cccnc3C)ccc1C1(CC1)N(C)C2=O [Example 197] = > 7.00
Cc1cc(-c2ccc3c(c2)-n2nc(-c4ccccc4)cc2C(=O)N(C)C32CC2)ccn1 [Example 122] = 6.00 to 7.00
Cc1ncccc1-c1cc(F)c2c(c1)-n1cccc1C(=O)N(C)C21CC1 [Example 73] = > 7.00

Which value of pEC50 has been reported for CN1C(=O)c2cccn2-c2cc(-c3ccc(Cl)nc3)ccc2C12CC2 [Example 54] in the records?
> 7.00

Here is the next compound: Cc1ccc(-c2ccc3c(c2)-n2cc(-c4nccs4)cc2C(=O)N(C)C32CC2)cn1 [Example 158]
> 7.00

* * *

Biological target: human mGluR3 (hmGluR3) (Homo sapiens, UniProt Q14832)
Sequence (Q14832 23-879): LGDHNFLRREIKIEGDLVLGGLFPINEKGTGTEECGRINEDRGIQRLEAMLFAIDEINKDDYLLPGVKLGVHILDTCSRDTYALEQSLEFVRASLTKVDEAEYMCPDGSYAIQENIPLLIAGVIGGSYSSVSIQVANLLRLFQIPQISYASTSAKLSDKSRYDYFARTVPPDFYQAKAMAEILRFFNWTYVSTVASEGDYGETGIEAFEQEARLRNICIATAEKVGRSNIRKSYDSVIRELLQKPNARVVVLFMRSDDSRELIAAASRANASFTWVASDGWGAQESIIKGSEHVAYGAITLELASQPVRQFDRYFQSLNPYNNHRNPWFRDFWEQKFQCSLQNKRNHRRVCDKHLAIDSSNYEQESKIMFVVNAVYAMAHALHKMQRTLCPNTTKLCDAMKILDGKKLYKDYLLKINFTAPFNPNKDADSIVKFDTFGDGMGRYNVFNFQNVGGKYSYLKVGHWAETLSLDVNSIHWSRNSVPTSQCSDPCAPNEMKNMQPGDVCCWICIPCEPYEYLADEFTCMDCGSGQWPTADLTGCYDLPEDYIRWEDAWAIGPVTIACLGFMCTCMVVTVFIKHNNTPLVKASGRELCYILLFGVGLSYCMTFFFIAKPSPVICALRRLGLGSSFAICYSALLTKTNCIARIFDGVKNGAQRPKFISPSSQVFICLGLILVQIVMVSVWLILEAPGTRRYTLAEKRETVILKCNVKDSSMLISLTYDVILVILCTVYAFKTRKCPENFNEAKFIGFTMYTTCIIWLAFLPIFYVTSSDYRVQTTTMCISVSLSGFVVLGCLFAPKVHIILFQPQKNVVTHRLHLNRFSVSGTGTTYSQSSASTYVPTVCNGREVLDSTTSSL
Experiment: Human mGluR3 positive allosteric modulator evaluation using Ca++ functional assay
Conditions: hmGluR3 transiently over-expressed in HEK-293 cells; stimulated by EC50 glutamate concentration; intracellular Ca2+ (Fluo4AM, FLIPR Tetra)
measurement.kind: EC50

Some compounds with known EC50 results, for comparison:
Cc1ncoc1-c1ccc2c(c1)-n1cccc1C(=O)N(C)C21CC1 = > 1000 nM
Cc1n[nH]c(C)c1-c1ccc2c(c1)-n1cccc1C(=O)N(C)C21CC1 = > 1000 nM
[2H]C([2H])([2H])N1C(=O)c2cccn2-c2cc(-c3ccc(F)nc3)ccc2C12CC2 = < 100 nM
CN1C(=O)c2cccn2-c2cc(CC#N)ccc2C12CC2 = > 1000 nM
CN1C(=O)c2cc(Cl)cn2-c2cc(Br)ccc2C12CC2 = > 1000 nM
CN1C(=O)c2cc(-c3nnco3)cn2-c2cc(-c3ccc(Cl)nc3)ccc2C12CC2 = < 100 nM
CCc1ncccc1-c1ccc2c(c1)-n1cc(-c3ccccc3F)cc1C(=O)N(C)C21CC1 = < 100 nM
Cc1ncccc1-c1ccc2c(c1)-n1cc(C3CCCC3)cc1C(=O)N(C)C21CC1 = 100 to 1000 nM
Cc1ncccc1-c1ccc2c(c1)-n1cc(-c3ncc[nH]3)cc1C(=O)N(C)C21CC1 = < 100 nM
COC(=O)c1ncccc1-c1ccc2c(c1)-n1cccc1C(=O)N(C)C21CC1 = > 1000 nM

Form field - read-out: EC50; system: human mGluR3 (hmGluR3) (Homo sapiens, UniProt Q14832); submitted item: Cc1ncccc1-c1ccc2c(c1)-n1nc(-c3ccccc3)cc1C(=O)N(C)C21CC1
< 100 nM

Follow-up item: Cc1ncccc1-c1ccc2c(c1)-n1cc(-c3ccccc3Cl)cc1C(=O)N(C)C21CC1
100 to 1000 nM

* * *

Counter-ions that a name gives are not always drawn.
The reader will find reported melting point values listed item by item below.

CN1C(=O)c2cccn2-c2c(C#N)cccc2C12CC2 [Example 91] = 250 °C

What melting point value was documented for this compound, CN1C(=O)c2cccn2-c2cc(C=CC#N)ccc2C12CC2 (mixture of isomers) [Example 52] ?
130 to 138 °C

Now consider Cc1ncccc1-c1ccc2c(c1)-n1cccc1C(=O)N(C)C21CC1 [Example 20] .
200 to 210 °C

Likewise for CCc1ncccc1-c1ccc2c(c1)-n1cccc1C(=O)N(C)C21CC1 (as salt: hydrochloride) [Example 24] ?
136 to 143 °C

Moving on to CN1C(=O)c2cccn2-c2ccccc2C1(C)C [Example 221]
127 to 130 °C
